Ref: the supplement of paper PMC10126150

System: ATP;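 further: ATP exposure 15 min at 22 °C before imaging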
ASSAY EXPLANATION: switch fluorescence ratio, 500 uM ATP over buffer (Cy3 cluster intensity, sum of 5 cycles each) (fold (ratio)); higher = stronger signal-on switching upon ATP binding; sequences stand for … in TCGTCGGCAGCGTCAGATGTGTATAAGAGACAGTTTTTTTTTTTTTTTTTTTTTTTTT…TC
TEST CONDITIONS: aptamer strand: ATP DNA aptamer (quencher-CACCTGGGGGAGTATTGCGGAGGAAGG + anchor), 100 nM annealed; ATP concentration: 500 uM
MEASURE NAME: switch fluorescence ratio

GCTCCTAAAA	1.1

For each of the items listed, what is its switch fluorescence ratio?
1. GATCCAGGAG
2. TGAAGGGTTT

Return:
[1.11, 0.996]

For each of the items listed, what is its switch fluorescence ratio?
1. GGGAGGAGCA
2. GTGTAATTTG
3. CGTGGGGGTT
4. TTTGTGGTTG
5. CGTTTAACTC
6. GATTCTGGTT
7. GGAACGGGCT

Return:
1: 1.01; 2: 0.994; 3: 0.973; 4: 0.992; 5: 1.05; 6: 0.94; 7: 1

For each of the items listed, what is its switch fluorescence ratio?
1. GGAGTTATAT
2. CTTTTTGTTT
3. AGGAGGGTTA
4. GGGAAGGGTA

Return:
1: 1.1; 2: 1.01; 3: 1; 4: 1

For each of the items listed, what is its switch fluorescence ratio?
1. TCAAATTGCC
2. AAAGGGCATG
3. TATAAAAACG
4. GGGGTGTGGT
5. ATTTTGGACC
6. AAGTGCGGGA
7. ACAGGGGGAG
8. AGGTTACTCC

Return:
[0.982, 1, 1.11, 0.998, 1, 0.997, 0.983, 1.07]

For each of the items listed, what is its switch fluorescence ratio?
1. GACCATGGGG
2. TTTGTCTTTT

Return:
1. 1.07
2. 1.02

For each of the items listed, what is its switch fluorescence ratio?
1. GAATTCTCGT
2. CTAAGGCGAT
3. GGGGTGCTG
4. ATGTGTGAAT
5. GGGGCCAAAA
6. CAAGGCTCAA

Return:
[0.969, 1.06, 1.02, 0.997, 0.947, 1]

For each of the items listed, what is its switch fluorescence ratio?
1. TATATTGTA
2. TTTGGCATGG

Return:
1: 0.986; 2: 1.02

For each of the items listed, what is its switch fluorescence ratio?
1. TAGGCGTAGG
2. CCGGACGCGT
3. ACGGGCATTT
4. TCGGAGGTGT
5. TGCTTGCCTT
6. AATCCTTAAT

Return:
1: 0.988; 2: 1.52; 3: 0.994; 4: 1.01; 5: 0.989; 6: 1.01
